molecular target: Melanocortin receptor 5 (Homo sapiens, UniProt P33032); test: Agonist activity at human MC5R expressed in CHO cells assessed as cAMP accumulation; format: functional, cell-based
Sequence (P33032 whole entry): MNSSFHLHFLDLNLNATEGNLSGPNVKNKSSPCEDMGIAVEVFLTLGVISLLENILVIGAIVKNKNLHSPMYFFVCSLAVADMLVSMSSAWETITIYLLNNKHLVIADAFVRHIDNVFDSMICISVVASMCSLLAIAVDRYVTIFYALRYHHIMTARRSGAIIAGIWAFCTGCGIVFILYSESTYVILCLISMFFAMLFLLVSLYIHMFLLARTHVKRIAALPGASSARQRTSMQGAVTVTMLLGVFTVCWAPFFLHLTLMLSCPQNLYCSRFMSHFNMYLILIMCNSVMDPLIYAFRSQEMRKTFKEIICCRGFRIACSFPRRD
Hi there, I'd appreciate the recorded EC50 for every entry that follows.

// known answers, use as guide
smiles_text=CCCC[C@H](NC(C)=O)C(=O)N[C@H]1CC(=O)NCCCC[C@@H](C(N)=O)NC(=O)[C@H](Cc2c[nH]c3ccccc23)NC(=O)[C@@H]2CCCCN2C(=O)[C@@H](Cc2ccc(-c3ccccc3)cc2)NC(=O)[C@@H]2CCCN2C1=O test_target="Melanocortin receptor 5 (Homo sapiens, UniProt P33032)" measured_parameter=EC50 observed_result="0.031 nM (agonist)"
smiles_text=CCCC[C@H](NC(C)=O)C(=O)N[C@H]1CC(=O)NCCCC[C@@H](C(N)=O)NC(=O)[C@H](Cc2c[nH]c3ccccc23)NC(=O)[C@@H]2CCCN2C(=O)[C@@H](Cc2cccs2)NC(=O)[C@H](Cc2cnc[nH]2)NC1=O test_target="Melanocortin receptor 5 (Homo sapiens, UniProt P33032)" measured_parameter=EC50 observed_result="> 1500 nM"

Consider now this further compound.
Report value: EC50, system: Melanocortin receptor 5 (Homo sapiens, UniProt P33032), compound: CCCC[C@H](NC(C)=O)C(=O)N[C@H]1CC(=O)NCCCC[C@@H](C(N)=O)NC(=O)[C@H](Cc2c[nH]c3ccccc23)NC(=O)[C@@H]2CCCCN2C(=O)[C@@H](Cc2ccc(-c3ccccc3)cc2)NC(=O)[C@@H]2Cc3ccccc3CN2C1=O 0.45 nM (agonist)
